- Species: Rattus norvegicus
- run description: Open TG-GATES - Regimen: Single
- Format: toxicity, organism-based, Sprague-Dawley
- Set-up: regimen Single, gender Male, age 6 weeks
- experimental conditions: in vivo, po, 0 mg/kg, 9 h, tissue Kidney, route gavage, dose level Control
Exercise: for every item that follows, state its recorded KIDNEY_L.
State just the number; it will be interpreted in g.

Prompt: GET /values?readout=KIDNEY_L&item= C[C@]12CCC(=O)C=C1CC[C@@H]1[C@@H]2CC[C@@]2(C)[C@H]1CC[C@]2(C)O
Response: 0.9

Prompt: Entry CCSCC[C@H](N)C(=O)O : reported KIDNEY_L = ?
Response: 1

Prompt: So what's the measured KIDNEY_L for this one? O=C(N[C@H](CO)[C@H](O)c1ccc([N+](=O)[O-])cc1)C(Cl)Cl
Response: 0.9

Prompt: Look up KIDNEY_L for this compound: C[C@](N)(Cc1ccc(O)c(O)c1)C(=O)O
Response: 0.8

Prompt: Could you tell me which KIDNEY_L is on file for CC(=N)S [THIOACETAMIDE] ?
Response: 0.9

Prompt: Could you share which KIDNEY_L value was measured for Oc1ncnc2[nH]ncc12 ?
Response: 0.9
